Before we begin, note that these IC50 values for Vascular endothelial growth factor receptor 2 (Homo sapiens, UniProt P35968) originate from several publications.

The examples below pair each entry with its known result.
Q: If you can, please state the reported IC50 value of `COc1cc2nccc(Oc3ccc(NC(=S)N4CC[C@@H](F)C4)c(Cl)c3F)c2cc1C(N)=O` .
Ans: 0.05 to 0.2 µM

Q: If you can, please state the reported IC50 value of `Cc1cn(-c2cncc(N[C@@H](C)c3cccc(NC(=O)c4cccc(C(F)(F)F)c4)c3)n2)cn1` .
Ans: < 0.1 µM

Q: If you can, please state the reported IC50 value of CC(c1cc(NC(=O)Nc2ccc(Oc3ccnc(NC(=O)C4CC4)c3)c(F)c2)cc(C(F)(F)F)c1)N1CCN(C)CC1 (centres unmarked) .
Ans: 0.0154 µM

---
Q: If you can, please state the reported IC50 value of `COc1cnc2c(Oc3ccc(NC(=O)c4cn(C)c(C)c(C5=CCOCC5)c4=O)cc3F)ccnc2c1` .
Ans: > 0.3 µM

Q: If you can, please state the reported IC50 value of `Cc1cccc(Nc2nc3c(NCCCN4CCN(C)CC4)nccn3n2)c1` .
Ans: 3 to 50 µM

Q: If you can, please state the reported IC50 value of Cc1ccc(S(=O)(=O)N=S(C)c2cccc(Nc3ncc(Br)c(NC(C)C)n3)c2)cc1 (racemic) .
Ans: 0.2 µM

Q: If you can, please state the reported IC50 value of `O=C(Nc1ccc(F)c(C(=O)c2ccc3ncc(N4CCOCC4)nc3c2)c1)c1cccc(C(F)(F)F)c1` .
Ans: < 0.1 µM

Q: If you can, please state the reported IC50 value of `COc1cc(-c2cc3nccc(-c4cccc(S(C)(=O)=O)c4)c3o2)cc(OC)c1OC` .
Ans: 0.3 to 3 µM

###

pIC50: −log10 of the molar value.
Before we begin, note that these pIC50 values for Vascular endothelial growth factor receptor 2 (Homo sapiens, UniProt P35968) originate from several publications.

The examples below pair each entry with its known result.
Q: What reported pIC50 corresponds to `O=C(Nc1ccc(Br)cc1)Nc1ncnc2nn3ccccc3c12` on Vascular endothelial growth factor receptor 2 (Homo sapiens, UniProt P35968)?
Ans: 5.00 to 6.00

Q: What reported pIC50 corresponds to `C=C(C)c1c(C)nc(C)c(C(=O)Nc2ccc(Oc3ccnc4cc(OC)cnc34)c(F)c2)c1O` on Vascular endothelial growth factor receptor 2 (Homo sapiens, UniProt P35968)?
Ans: ≥ 7.00

Q: What reported pIC50 corresponds to `COCCOc1cc2nccc(Oc3ccc(NC(=O)Nc4ccc(F)cc4)cc3)c2cc1C#N` on Vascular endothelial growth factor receptor 2 (Homo sapiens, UniProt P35968)?
Ans: 8.31

Q: What reported pIC50 corresponds to `COc1cc2nccc(Oc3ccc4c(NC(=S)NC5CC5)nn(C)c4c3)c2cc1C(N)=O` on Vascular endothelial growth factor receptor 2 (Homo sapiens, UniProt P35968)?
Ans: 6.00 to 6.70

Q: What reported pIC50 corresponds to `Fc1cc(F)cc(-c2ccnc3[nH]cc(Sc4ccc(Cl)cc4)c23)c1` on Vascular endothelial growth factor receptor 2 (Homo sapiens, UniProt P35968)?
Ans: ≥ 5.00

---
Q: What reported pIC50 corresponds to `COc1cc(OC)cc(N(CC2CC2)c2ccc3ncc(-c4nnn(C)n4)nc3c2)c1` on Vascular endothelial growth factor receptor 2 (Homo sapiens, UniProt P35968)?
Ans: < 6.00

Q: What reported pIC50 corresponds to `COCCOc1cc2ncnc(Nc3ccc(NC(=O)Nc4ccc(C(F)(F)F)cc4F)c(Cl)c3)c2c2c1OCCO2` on Vascular endothelial growth factor receptor 2 (Homo sapiens, UniProt P35968)?
Ans: > 7.30

Q: What reported pIC50 corresponds to `CN(C)C(=O)Cn1cc(-c2cc(-c3ccc(N4CCN(Cc5ccc(S(C)(=O)=O)cc5)CC4)nc3)c3c(C#N)cnn3c2)cn1` on Vascular endothelial growth factor receptor 2 (Homo sapiens, UniProt P35968)?
Ans: 8.00
